The reported measurements were obtained from paper PMC8746696.

Collected melting point values appear next to each entry.

Examples with answers:
INSERT INTO results (smiles_repr, value) VALUES
  ('C[C@H](CCC(=O)O/N=C(\N)c1ccc(Br)cc1)[C@H]1CC[C@H]2[C@@H]3CC[C@@H]4C[C@H](OCc5ccccc5)CC[C@]4(C)[C@H]3C[C@H](OCc3ccccc3)[C@]12C', '144.5 to 147.4 °C'),
  ('C[C@H](CCC(=O)O)[C@H]1CC[C@H]2[C@@H]3CC[C@@H]4C[C@H](OCc5ccccc5)CC[C@]4(C)[C@H]3C[C@H](OCc3ccccc3)[C@]12C', '181.2 °C (dec.)'),
  ('C[C@H](CCc1nnc(-c2ccc(Br)cc2)o1)[C@H]1CC[C@H]2[C@@H]3CC[C@@H]4C[C@H](OCc5ccccc5)CC[C@]4(C)[C@H]3C[C@H](OCc3ccccc3)[C@]12C', '131.4 °C (dec.)'),
  ('C[C@H](CCc1nc(-c2ccc(Br)cc2)no1)[C@H]1CC[C@H]2[C@@H]3CC[C@@H]4C[C@H](OCc5ccccc5)CC[C@]4(C)[C@H]3C[C@H](OCc3ccccc3)[C@]12C', '130.2 to 135.5 °C'),
  ('C[C@H](CCC(=S)Nc1ccc(Br)cc1)[C@H]1CC[C@H]2[C@@H]3CC[C@@H]4C[C@H](OCc5ccccc5)CC[C@]4(C)[C@H]3C[C@H](OCc3ccccc3)[C@]12C', '58 °C (dec.)'),
  ('C[C@H](CCC(=O)O)[C@H]1CC[C@H]2[C@@H]3CC[C@@H]4C[C@H](OCc5ccccc5)CC[C@]4(C)[C@H]3CC(=O)[C@]12C', '147.9 °C');

For the next question, use this molecule.
Record C[C@H](CCC(=O)O/N=C(\N)Cc1ccc(Br)cc1)[C@H]1CC[C@H]2[C@@H]3CC[C@@H]4C[C@H](OCc5ccccc5)CC[C@]4(C)[C@H]3C[C@H](OCc3ccccc3)[C@]12C , field melting point: 80.2 to 83.9 °C

----------
Listed next: entries and their corresponding IC50.
- study.system: TDP1 (Homo sapiens, UniProt Q9NUW8)
- Sequence (Q9NUW8 whole entry): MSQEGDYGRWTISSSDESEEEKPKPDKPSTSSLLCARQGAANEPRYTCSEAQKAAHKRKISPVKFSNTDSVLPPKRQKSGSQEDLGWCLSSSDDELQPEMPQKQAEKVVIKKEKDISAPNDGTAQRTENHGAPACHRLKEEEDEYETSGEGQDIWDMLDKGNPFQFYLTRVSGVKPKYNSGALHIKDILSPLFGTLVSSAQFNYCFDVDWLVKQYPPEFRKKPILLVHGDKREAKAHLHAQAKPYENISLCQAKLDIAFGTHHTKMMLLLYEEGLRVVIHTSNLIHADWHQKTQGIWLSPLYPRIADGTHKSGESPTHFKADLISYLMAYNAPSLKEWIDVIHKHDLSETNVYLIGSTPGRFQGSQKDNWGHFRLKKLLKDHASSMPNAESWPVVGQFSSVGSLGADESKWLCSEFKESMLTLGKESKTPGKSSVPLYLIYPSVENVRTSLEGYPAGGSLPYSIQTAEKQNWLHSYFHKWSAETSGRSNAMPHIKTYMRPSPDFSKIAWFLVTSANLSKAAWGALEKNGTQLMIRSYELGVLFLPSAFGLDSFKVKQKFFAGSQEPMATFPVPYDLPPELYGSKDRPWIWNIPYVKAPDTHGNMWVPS
- assay.text: Real-time fluorescence detection of TDP1 activity (FAM/BHQ1 oligonucleotide biosensor)
- Format: biochemical
- assay.setup: concentration that inhibits the activity of the enzyme by 50%; read-out: TDP1 IC50
- Source text: For real-time detection of TDP1 activity, we used the oligonucleotide biosensor based on the ability of TDP1 to remove fluorophore quenchers from the 3′-end of DNA [29]. […] TDP1 inhibitors prevent the removal of fluorophore quenchers, thus reducing fluorescence intensity. TDP1 activity was detected, as described by intensity measurement in a reaction of quencher removal from a fluorophore quencher–coupled DNA oligonucleotide catalyzed by TDP1. […]
Reply numerically in nM, unit not repeated.

INSERT INTO results (compound, unit_name, value) VALUES
  ('C[C@H](CCC(=O)O/N=C(\N)Cc1ccc(Br)cc1)[C@H]1CC[C@H]2[C@@H]3CC[C@@H]4C[C@H](OCc5ccccc5)CC[C@]4(C)[C@H]3C[C@H](OCc3ccccc3)[C@]12C [Compound 12]', 'nM', 320),
  ('C[C@H](CCC(=O)NCCCc1cc(C(C)(C)C)c(O)c(C(C)(C)C)c1)[C@H]1CC[C@H]2[C@@H]3CC[C@@H]4C[C@H](OCc5ccccc5)CC[C@]4(C)[C@H]3C[C@H](OCc3ccccc3)[C@]12C [Compound 10]', 'nM', 370),
  ('C[C@H](CCC(=O)Nc1ccc(Br)cc1)[C@H]1CC[C@H]2[C@@H]3CC[C@@H]4C[C@H](OCc5ccccc5)CC[C@]4(C)[C@H]3C[C@H](OCc3ccccc3)[C@]12C [Compound 7]', 'nM', 970),
  ('C[C@H](CCC(=O)NCCc1c[nH]c2ccccc12)[C@H]1CC[C@H]2[C@@H]3CC[C@@H]4C[C@H](OCc5ccccc5)CC[C@]4(C)[C@H]3CC(=O)[C@]12C [Compound 6]', 'nM', 590);

Proceed to the following item.
# IC50 (compound: C[C@H](CCC(=O)NN)[C@H]1CC[C@H]2[C@@H]3CC[C@@H]4C[C@H](OCc5ccccc5)CC[C@]4(C)[C@H]3C[C@H](OCc3ccccc3)[C@]12C [Compound 17] ) is 230
